target: UniProt:P05067; test: Th-T (thioflavin-T) assay of Aβ42 aggregation; type: biochemical; conditions: compound at 20; reading M57 of time course
Lab note: anything with Th-T fluorescence, mean of three wells at or over 2 counts as rule met; the rest go in rule not met.

As a guide, the following entries are already answered.
C=C1CCC2C(C)(CCC=C(C)C)C(O)CCC2(C)C1Cc1c(OC)oc(C)c(C(=O)OC)c1=O (centres unmarked) [Compound 14]
rule met
C=C1CCC2C(C)(CCC=C(C)C)C(O)CCC2(C)C1Cc1c(OC)oc(CO)c(C(=O)OC)c1=O (centres unmarked) [Compound 13]
rule not met
C=C1CC[C@@H]2[C@](C)(CC[C@H]3O[C@H](C=C(C)C)C[C@@]23C)[C@@H]1Cc1c(OC)oc(CO)c(C)c1=O [Compound 20]
rule met
C=C1CC[C@@H]2[C@](C)(CC[C@H]3O[C@H](C=C(C)C)C[C@@]23C)[C@@H]1Cc1c(OC)oc(CO)c(C(=O)OC)c1=O [Compound 21]
rule not met

Query :: Decide: Th-T fluorescence, mean of three wells of C=C1CCC2C(C)(CCC=C(C)C)C(O)CCC2(C)C1Cc1c(OC)oc(CO)c(C)c1=O (centres unmarked) [Compound 12] >= 2?
Result :: rule met

* * *

Quick list: Th-T fluorescence of Aβ42 with compound, mean of three wells (Fig. 7a source data) per entry.
target: Aβ42 (Homo sapiens); experiment: Th-T (thioflavin-T) assay of Aβ42 aggregation; assay type: biochemical; details: concentration 10, unit not given; time-course reading M138

C=C1CCC2C(C)(CCC=C(C)C)C(O)CCC2(C)C1Cc1c(OC)oc(CO)c(C)c1=O (centres unmarked)
2.29
C=C1CC[C@@H]2[C@](C)(CC[C@H]3O[C@H](C=C(C)C)C[C@@]23C)[C@@H]1Cc1c(OC)oc(CO)c(C(=O)OC)c1=O
1.717
C=C1CCC2C(C)(CCC=C(C)C)C(O)CCC2(C)C1Cc1c(OC)oc(C)c(C(=O)OC)c1=O (centres unmarked)
2.929
C=C1CCC2C(C)(CCC=C(C)C)C(O)CCC2(C)C1Cc1c(OC)oc(CO)c(C(=O)OC)c1=O (centres unmarked)
1.542

Okay, now this compound:
Query :: # lookup: Th-T fluorescence of Aβ42 with compound, mean of three wells (Fig. 7a source data) of C=C1CC[C@@H]2[C@](C)(CC[C@H]3O[C@H](C=C(C)C)C[C@@]23C)[C@@H]1Cc1c(OC)oc(CO)c(C)c1=O
Result :: 3.16

* * *

target: Aβ42 (Homo sapiens, UniProt P05067); assay: Th-T (thioflavin-T) assay of Aβ42 aggregation; assay type: biochemical; conditions: column suffix _50; measurement M28
Sequence (P05067 672-713): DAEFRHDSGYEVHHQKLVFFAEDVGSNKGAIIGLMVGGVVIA
Listed here are compounds together with their documented Th-T fluorescence, mean of three wells (Fig. 7a).
The response must contain the number and no unit.

Query :: State its Th-T fluorescence, mean of three wells (Fig. 7a) on Aβ42 (Homo sapiens, UniProt P05067): C=C1CCC2C(C)(CCC=C(C)C)C(O)CCC2(C)C1Cc1c(OC)oc(CO)c(C(=O)OC)c1=O (centres unmarked)
Result :: 0.3753

Query :: Entry C=C1CC[C@@H]2[C@](C)(CC[C@H]3O[C@H](C=C(C)C)C[C@@]23C)[C@@H]1Cc1c(OC)oc(CO)c(C)c1=O , system Aβ42 (Homo sapiens, UniProt P05067): what Th-T fluorescence, mean of three wells (Fig. 7a) was measured?
Result :: 2.198

Query :: So what Th-T fluorescence, mean of three wells (Fig. 7a) did C=C1CC[C@@H]2[C@](C)(CC[C@H]3O[C@H](C=C(C)C)C[C@@]23C)[C@@H]1Cc1c(OC)oc(CO)c(C(=O)OC)c1=O get with Aβ42 (Homo sapiens, UniProt P05067)?
Result :: 0.2093

Query :: Give Th-T fluorescence, mean of three wells (Fig. 7a) (Aβ42 (Homo sapiens, UniProt P05067)) of the following compound: C=C1CCC2C(C)(CCC=C(C)C)C(O)CCC2(C)C1Cc1c(OC)oc(CO)c(C)c1=O (centres unmarked)
Result :: 1.623

Query :: // lookup Th-T fluorescence, mean of three wells (Fig. 7a) | system=Aβ42 (Homo sapiens, UniProt P05067) | key= C=C1CCC2C(C)(CCC=C(C)C)C(O)CCC2(C)C1Cc1c(OC)oc(C)c(C(=O)OC)c1=O (centres unmarked)
Result :: 0.9376
